Several reports have described pKi for Adenosine receptor A1 (Rattus norvegicus); a selection of those results is presented here.
Please report pKi as the negative decimal logarithm of the molar concentration, giving only the number.

# count of solved cases: 3
1) O[C@@H]1[C@H](O)[C@@H](Cl)O[C@H]1n1cnc2c(NC3CCCC3)ncnc21; 9.20
2) COc1cc(O)c2c(c1)O[C@H](c1ccc(O)cc1)CC2=O; 5.09
3) OC[C@@H]1CC[C@H](n2cnc3c(NC4CCCCC4)ncnc32)O1; 5.32

Now for a further compound.
Q. For the compound shown here, O=C1NC(=O)c2cc(OCc3ccccc3)ccc21 , give the reported pKi.
A. 5.33

----------
Several reports have described Ki for Adenosine receptor A1 (Rattus norvegicus, UniProt P25099); a selection of those results is presented here.
Test Target: Adenosine receptor A1 (Rattus norvegicus, UniProt P25099)
Sequence (P25099 whole entry): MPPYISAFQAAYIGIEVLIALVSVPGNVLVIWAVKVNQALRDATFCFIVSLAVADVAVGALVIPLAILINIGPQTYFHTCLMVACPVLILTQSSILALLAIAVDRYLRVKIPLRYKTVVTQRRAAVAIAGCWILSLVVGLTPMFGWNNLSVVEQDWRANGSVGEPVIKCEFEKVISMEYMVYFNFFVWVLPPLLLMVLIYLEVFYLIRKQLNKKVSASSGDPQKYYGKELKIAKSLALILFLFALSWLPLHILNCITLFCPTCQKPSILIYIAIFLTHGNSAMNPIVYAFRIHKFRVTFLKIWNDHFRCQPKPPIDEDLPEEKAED
Report only the number, with the unit nM understood.

Q. For the compound shown here, CC(Sc1nc(SC(C)C(N)=O)c2cnn(-c3ccccc3)c2n1)C(N)=O (stereo unspecified) , give the reported Ki.
A. 370

Q. Could you do the same for NC(=NCc1ccccc1)NC(=O)c1nc(Cl)c(N)nc1N , please?
A. 980

Q. Could you do the same for O=C1Nc2ccc(OCc3ccccc3)cc2C1=O , please?
A. 9790

Q. Could you do the same for COc1ccc2c(c1)C(=O)C(O)C(C#Cc1ccccc1)O2 (stereo unspecified) , please?
A. 50100

Q. Could you do the same for Nc1nc(-c2ccccc2)nc2c1nnn2Cc1ccccc1F , please?
A. 3.8

----------
Several reports have described Ki for Adenosine receptor A1 (Rattus norvegicus); a selection of those results is presented here.

# count of solved cases: 2
1) O=c1[nH]c(=O)c2ncn(C3OC(COP(=O)(O)O)C(O)C3O)c2[nH]1 (stereo not drawn); > 10 µM
2) CCCn1c(=O)c2[nH]c(-c3ccc(OCC(=O)NCCN)cc3)nc2n(CCC)c1=O; 0.00049 µM

Q. API: value(readout=Ki, system=Adenosine receptor A1 (Rattus norvegicus)) for record CSC[C@H]1O[C@@H](n2cnc3c(NC4CCCC4)ncnc32)[C@H](O)[C@@H]1O
A. 0.243 µM

Q. Could you do the same for CO[C@@H]1[C@H](O)[C@@H](CO)O[C@H]1n1cnc2c(N)ncnc21 , please?
A. > 10 µM

Q. Could you do the same for Nc1nc2c(ncn2[C@H]2O[C@@H](COP(=O)(O)O)[C@H](O)[C@@H]2O)c(=O)[nH]1 , please?
A. 27.8 µM

Q. Could you do the same for CN1CCN(C2=c3ccccc3=Nc3ccc(Cl)cc3N2)CC1 , please?
A. > 10 µM

Q. Could you do the same for Nc1ccn([C@@H]2O[C@H](COP(=O)(O)OP(=O)(O)O)[C@@H](O)[C@H]2O)c(=O)n1 , please?
A. > 10 µM

Q. Could you do the same for CSC[C@H]1O[C@@H](n2cnc3c(NC4CCCC4)nc(F)nc32)[C@H](O)[C@@H]1O , please?
A. 0.084 µM
